This collection of values is drawn from patent US20100260765A1.

target: human KDR (human, UniProt P35968 20-1356); assay: cell-based or functional assay
Sequence (P35968 20-1356): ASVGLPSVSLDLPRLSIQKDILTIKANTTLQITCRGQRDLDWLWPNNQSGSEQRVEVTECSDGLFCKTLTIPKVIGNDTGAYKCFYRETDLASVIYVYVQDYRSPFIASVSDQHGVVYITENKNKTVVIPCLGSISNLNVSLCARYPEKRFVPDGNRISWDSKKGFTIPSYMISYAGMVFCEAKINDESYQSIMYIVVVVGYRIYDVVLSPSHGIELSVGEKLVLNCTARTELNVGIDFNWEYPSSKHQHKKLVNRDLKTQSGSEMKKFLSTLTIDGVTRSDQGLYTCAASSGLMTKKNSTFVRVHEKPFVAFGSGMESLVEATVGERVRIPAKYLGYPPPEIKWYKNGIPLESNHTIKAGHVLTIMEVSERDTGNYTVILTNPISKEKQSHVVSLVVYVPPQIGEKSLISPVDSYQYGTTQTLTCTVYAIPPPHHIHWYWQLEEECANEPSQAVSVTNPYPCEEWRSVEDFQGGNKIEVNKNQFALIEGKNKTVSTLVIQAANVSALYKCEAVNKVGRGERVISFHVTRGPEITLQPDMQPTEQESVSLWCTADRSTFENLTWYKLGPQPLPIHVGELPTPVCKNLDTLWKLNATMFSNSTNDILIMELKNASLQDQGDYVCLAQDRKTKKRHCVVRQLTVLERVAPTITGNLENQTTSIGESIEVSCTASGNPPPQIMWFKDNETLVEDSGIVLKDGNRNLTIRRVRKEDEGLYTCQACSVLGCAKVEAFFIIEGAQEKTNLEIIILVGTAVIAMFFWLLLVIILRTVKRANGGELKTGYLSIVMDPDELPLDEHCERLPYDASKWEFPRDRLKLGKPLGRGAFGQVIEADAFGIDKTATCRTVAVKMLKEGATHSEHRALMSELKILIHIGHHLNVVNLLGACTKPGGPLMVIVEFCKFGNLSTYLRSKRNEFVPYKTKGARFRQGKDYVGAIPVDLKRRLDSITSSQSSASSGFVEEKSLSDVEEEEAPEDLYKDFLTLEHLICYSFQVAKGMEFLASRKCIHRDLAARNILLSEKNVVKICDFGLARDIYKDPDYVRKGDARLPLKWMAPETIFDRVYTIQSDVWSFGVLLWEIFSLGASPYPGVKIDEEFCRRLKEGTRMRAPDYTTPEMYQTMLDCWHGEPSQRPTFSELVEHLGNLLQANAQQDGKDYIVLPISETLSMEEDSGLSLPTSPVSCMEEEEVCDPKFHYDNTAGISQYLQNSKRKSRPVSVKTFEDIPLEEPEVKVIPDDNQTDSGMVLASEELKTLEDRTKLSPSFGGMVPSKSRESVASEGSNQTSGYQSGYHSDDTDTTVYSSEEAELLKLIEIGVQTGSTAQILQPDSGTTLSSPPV
measured-endpoint: KDR tyrosine phosphorylation in HUVEC, Maximum Inhibition at 100 nM (% Inhibition), N = 1 (%)
Give just the numeric value; % need not be written.

>>> experimental_result("29H3 (antibody, V domains shown, Fully human monoclonal antibody from a XenoMouse hybridoma (IgG2 or IgG4 strain), purified) VH: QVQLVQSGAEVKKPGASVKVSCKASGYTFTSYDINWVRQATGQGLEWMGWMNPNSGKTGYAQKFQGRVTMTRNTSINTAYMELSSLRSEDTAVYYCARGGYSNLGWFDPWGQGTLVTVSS VL: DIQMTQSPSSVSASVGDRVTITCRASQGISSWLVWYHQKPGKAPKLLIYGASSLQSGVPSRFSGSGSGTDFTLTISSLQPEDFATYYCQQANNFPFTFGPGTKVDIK")
33

# input for lookup
**Q:** Data request, read-out KDR tyrosine phosphorylation in HUVEC, Maximum Inhibition at 100 nM (% Inhibition), N = 1, for 32G7 (antibody, V domains shown, Fully human monoclonal antibody from a XenoMouse hybridoma (IgG2 or IgG4 strain), purified) VH: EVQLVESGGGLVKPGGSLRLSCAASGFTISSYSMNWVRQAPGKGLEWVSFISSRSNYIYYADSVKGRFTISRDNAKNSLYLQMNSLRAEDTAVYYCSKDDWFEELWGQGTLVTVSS VL: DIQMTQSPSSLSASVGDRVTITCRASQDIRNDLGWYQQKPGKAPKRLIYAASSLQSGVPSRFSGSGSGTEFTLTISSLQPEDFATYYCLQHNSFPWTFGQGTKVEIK
**A:** 69
